molecular target: T1, HER2 immobilised on a Biacore chip (UniProt P04626 23-652, limits assumed); assay: Biacore SPR, HER2 amine-coupled to the chip
T1 construct: also called immobilised HER2 target antigen (Biacore SPR); HER2 chip

{"binder": "scFv (TCT)-MMAF-C5 ADC 1 (DAR 5.6) (scFv, MMAF-C5 (from MMAF-C5-NHS, compound 78) on lysine residues; DAR 6.64 by AAA, 4.5 by MS, average 5.6, also called scFv (TCT)-MMAF-C5 1 DAR 5.6; scFv (TCT)-MMAF-C5, DAR 6.6) scFv: SGSGGSGQVQLVQSGAEVKKPGESLKISCKGSGYSFTSYWIAWVRQMPGKGLEYMGLIYPGDSDTKYSPSFQGQVTISVDKSVSTAYLQWSSLKPSDSAVYFCARHDVGYCSSSNCAAWPEYFQHWGQGTLVTVSSGGGGSGGGGSGGGGSQSVLTQPPSVSAAPGQKVTISCSGSSSNIGNNYVSWYQQLPGTAPKLLIYGHTNRPAGVPDRFSGSKSGTSASLAISGFRSEDEADYYCAAWDDSLSGWVFGGGTKLTVLMASMTGGQQMG", "kon (M⁻¹ s⁻¹)": 770000}
{"binder": "scFv (TCT)-Acetate DAR 15 (scFv, acetyl groups (from Acetate-NHS) on lysines, N-terminal amine and further residues, 15 additions by LC-MS, also called TCT-acetate conjugate 1) scFv: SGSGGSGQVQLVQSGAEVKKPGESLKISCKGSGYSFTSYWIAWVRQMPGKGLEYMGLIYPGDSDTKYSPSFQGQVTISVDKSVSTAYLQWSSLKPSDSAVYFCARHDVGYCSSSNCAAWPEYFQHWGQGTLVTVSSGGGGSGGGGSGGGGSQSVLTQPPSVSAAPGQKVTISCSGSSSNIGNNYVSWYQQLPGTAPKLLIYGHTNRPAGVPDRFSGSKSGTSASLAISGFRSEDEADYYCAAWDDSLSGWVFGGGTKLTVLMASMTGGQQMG", "kon (M⁻¹ s⁻¹)": "5.93e+06"}

Values compiled from patent US20220233706A1.
